| compound | melting point |
| --- | --- |
| COc1cc(Nc2c(C#N)cnc3cc(-c4ccc(C5OCCO5)o4)sc23)c(Cl)cc1Cl | 187 to 189 °C |
| COc1cc(Nc2c(C#N)cnc3cc(-c4ccc(CN5CCC(O)CC5)cc4)sc23)c(Cl)cc1Cl | 149 to 150 °C |
| COc1cc(Nc2c(C#N)cnc3cc(C#Cc4cccc(CN(C)C)n4)sc23)c(Cl)cc1Cl | 190 to 191 °C |
| COc1cc(Nc2c(C#N)cnc3cc(I)sc23)c(Cl)cc1Cl | 233 to 234 °C |
| COc1cc(Nc2c(C#N)cnc3cc(-c4csc(CN(C)C)c4)sc23)c(Cl)cc1Cl | 184 to 186 °C |
| COc1cc(Nc2c(C#N)cnc3cc(-c4ccc(CN5CCN(c6ccccc6)CC5)cc4)sc23)c(Cl)cc1Cl | 238 to 240 °C |
| COc1cc(Nc2c(C#N)cnc3cc(-c4ccc(C(=O)N(C)C)cc4)sc23)c(Cl)cc1Cl | 246 to 249 °C |
| COc1cc(Nc2c(C#N)cnc3cc(-c4cccc(CN5CCOCC5)c4)sc23)c(Cl)cc1Cl | 205 to 207 °C |
| COc1cc(Nc2c(C#N)cnc3cc(-c4ccsc4CN4CCN(C)CC4)sc23)c(Cl)cc1Cl | 218 to 219 °C |
| COc1cc(Nc2c(C#N)cnc3c(-c4ccc(CN5CCOCC5)cc4)csc23)c(Cl)cc1Cl | 184 to 185 °C |
| COc1cc(Nc2c(C#N)cnc3cc(-c4ccc(CN5CCN(C)CC5)cc4)sc23)c(Cl)cc1Cl | 226 to 228 °C |
| CCN(CC)Cc1ccc(-c2cc3ncc(C#N)c(Nc4ccc(Sc5nccn5C)c(Cl)c4)c3s2)cc1 | 200 to 203 °C |
| COc1cc(Nc2c(C#N)cnc3cc(-c4ccc(CNCc5ccncc5)cc4)sc23)c(Cl)cc1Cl | 128 to 130 °C |
| COc1cc(Nc2c(C#N)cnc3cc(-c4ccc(CN5CCN(C)CC5)o4)sc23)c(Cl)cc1Cl | 215 to 217 °C |
| COc1cc(Nc2c(C#N)cnc3cc(-c4ccc(CN5CCN(S(C)(=O)=O)CC5)cc4)sc23)c(Cl)cc1Cl | 211 to 213 °C |
| COc1cc(Nc2c(C#N)cnc3c(-c4ccc(C=O)cc4)csc23)c(Cl)cc1Cl | 268 °C (dec.) |
| N#Cc1cnc2cc(-c3ccc(C=O)cc3)sc2c1Nc1ccc(Cl)cc1Cl | 170 to 171 °C |
| COc1cc(Nc2c(C#N)cnc3cc(-c4ccc(CN5CCSCC5)cc4)sc23)c(Cl)cc1Cl | 198 to 201 °C |
| COc1cc(Nc2c(C#N)cnc3cc(-c4ccc(CN5CCN(Cc6ccccn6)CC5)cc4)sc23)c(Cl)cc1Cl | 105 to 107 °C |
| N#Cc1cnc2cc(Br)sc2c1Nc1ccc(Oc2ccccc2)cc1 | 248 to 250 °C |
| COc1cc(Nc2c(C#N)cnc3cc(-c4cccc(C=O)c4)sc23)c(Cl)cc1Cl | 262 to 263 °C |
| COc1cc(Nc2c(C#N)cnc3cc(C#Cc4ccc(CN(C)C)cn4)sc23)c(Cl)cc1Cl | 215 to 217 °C |
| N#Cc1cnc2cc(I)sc2c1Nc1ccc(Oc2ccccc2)cc1 | 260 to 262 °C |
| COc1cc(Nc2c(C#N)cnc3cc(-c4csc(C5OCCO5)c4)sc23)c(Cl)cc1Cl | 219 to 221 °C |
| COc1cc(Nc2c(C#N)cnc3cc(-c4ccc(C(=O)O)cc4)sc23)c(Cl)cc1Cl | > 300 °C |
| COc1cc(Nc2c(C#N)cnc3cc(-c4ccc(CN5CCN(c6ccccn6)CC5)cc4)sc23)c(Cl)cc1Cl | 245 to 247 °C |
| CN1CCN(Cc2ccc(-c3cc4ncc(C#N)c(Nc5ccc(Oc6ccccc6)cc5)c4s3)cc2)CC1 | 199 to 201 °C |
| COc1cc(Nc2c(C#N)cnc3cc(-c4ccc(CN(C)C)s4)sc23)c(Cl)cc1Cl | 210 to 212 °C |
| CN1CCN(Cc2ccc(-c3cc4ncc(C#N)c(Nc5ccc(Sc6nccn6C)c(Cl)c5)c4s3)cc2)CC1 | 221 to 224 °C |
| N#Cc1cnc2ccsc2c1Oc1ccc(Cl)cc1Cl | 158 to 160 °C |
| COc1cc(Nc2c(C#N)cnc3sc(-c4ccc(C=O)cc4)cc23)c(Cl)cc1Cl | > 240 °C |
| COc1cc(Nc2c(C#N)cnc3cc(Br)sc23)c(Cl)cc1Cl | 228 to 229 °C |
